# Tested on: CCRF-CEM
# Measurement protocol: NCI tumour cell line growth inhibition, 48 h
Calls of active or inactive are those of the source. No stated cut-off is given here; in the data, active = GI50 up to about 1.1 µM and inactive = higher.
Would you mind answering with one of these outcomes? 1 = active, 0 = inactive

COc1ccc(-c2nc(-c3cnccn3)n(C3OC(CO)C(O)C(O)C3O)n2)cc1 (centres undefined)    0
Cc1cc(C)c2c(O)cc(-c3ccc4ccccc4c3)nc2n1    0
OC(CCN1CCN(CCOC(c2ccc(F)cc2)c2ccc(F)cc2)CC1)c1ccccc1 (centres undefined)    0
NNC(=O)C(=O)N/N=C1/CCCC1C(=O)CCC(=O)Nc1ccc(Cl)cc1 (centres undefined)    0

Input line: Per the records of this test, what outcome belongs to c1ccc(CN2CCc3[nH]c4ccccc4c3C2)cc1 ?
Output line: 0

Input line: Per the records of this test, what outcome belongs to CSC(=N)N1N=C2c3ccccc3CC[C@@H]2[C@@H]1c1ccccc1 ?
Output line: 0

Input line: Per the records of this test, what outcome belongs to Nc1ccc2[nH]cc(CCC(=O)O)c2c1 ?
Output line: 0

Input line: Per the records of this test, what outcome belongs to CC[C@]12C=CCN3CCC4(c5cc([C@@]6(C(=O)OC)CC7CN(CCc8c6[nH]c6ccccc86)C[C@@H]6CCCC[C@H]76)c(OC)cc5N(C)C4[C@](O)(C(=O)OC)C1OC(C)=O)[C@@H]32 (some centres undefined) ?
Output line: 1

Input line: Per the records of this test, what outcome belongs to CCOC(=O)/C=C(/C(=O)OCC)n1cc(C)c(=O)[nH]c1=O ?
Output line: 0

---

GI50 values for the compounds below.
# Test system: NCI/ADR-RES
# Measurement protocol: NCI tumour cell line growth inhibition, 48 h
The source made the active and inactive calls. No stated cut-off is given here; in the data, active = GI50 up to about 1.1 µM and inactive = higher.

Examples with answers:
NC(=O)CC[C@H]1C(=O)N=C(N)N1C(=O)OCc1ccccc1    > 100 µM (inactive)
O=C(Nc1ccn(C2CCC(COC(c3ccccc3)(c3ccccc3)c3ccccc3)O2)c(=O)n1)c1ccccc1 (centres undefined)    2.72 µM (inactive)
COc1ccc2[nH]c(Cl)c(/C=C3/C(=O)N(c4ccccc4)c4ccccc43)c2c1    2.1 µM (inactive)

Input line: Name the reported GI50 value associated with the compound COc1cc(C#CC(=O)OC/C=C/c2ccc3c(c2)OCO3)cc(OC)c1OC
Output line: 20 µM (inactive)

---

# Test system: HT-29
# Measurement protocol: NCI tumour cell line growth inhibition, 48 h
The source made the active and inactive calls. Rule as the data show it: active = GI50 up to about 1.1 µM and inactive = higher.
Would you mind answering with one of these outcomes? Y = active, N = inactive

Study these solved cases before continuing.
Cc1cccc(C2=C/C(=C(\SS/C(C(=O)c3ccc(OCC(=O)O)c(Cl)c3Cl)=C3\C=C(c4cccc(C)c4)SS3)C(=O)c3ccc(OCC(=O)O)c(Cl)c3Cl)SS2)c1    N
CCN(CC)CC(C)(C)C(=O)/C=C/c1ccc(/C=C/C(=O)C(C)(C)CN(CC)CC)cc1    Y
COc1ccc(-c2nc(-c3cnccn3)n(C3OC(CO)C(O)C(O)C3O)n2)cc1 (stereo not given)    N
COc1cc(-c2cc(=O)c3ccccc3o2)ccc1N    N

Input line: Per the records of this test, what outcome belongs to O=C(O)Cn1nnc2c(=O)[nH][nH]c(=O)c21 ?
Output line: N

---

# Test system: Hs-578T
# Measurement protocol: NCI tumour cell line growth inhibition, 48 h
Active and inactive are the calls of the source. No stated cut-off is given here; in the data, active = GI50 up to about 1.1 µM and inactive = higher.
Would you mind answering with one of these outcomes? active, inactive

Study these solved cases before continuing.
COc1ccc(/C=C\c2cc(OC)c(OC)c(OC)c2)cc1OC    active
CC(C)C[C@H](NC(=O)[C@@H](Cc1cccc2ccccc12)NC(=O)N1CCOCC1)B(O)O    inactive
O=C(O)C1CC(c2ccc(F)cc2)=Nc2ccc(F)cc2S1 (stereo not given)    inactive
O=[N+]([O-])c1ccc2c(c1)Nc1c3ccccc3nc3cccc-2c13    inactive

Input line: Per the records of this test, what outcome belongs to O=C(Nc1nnc(-c2ccccc2)o1)C(SC(=S)N1CCCC1)c1ccccc1 (stereo not given) ?
Output line: inactive

---

GI50 values for the molecules below.
# System: NCI-H226
# Measurement protocol: NCI tumour cell line growth inhibition, 48 h
Calls of active or inactive are those of the source. Cut-off read from the data, not from the text of the source: active = GI50 up to about 1.1 µM and inactive = higher.

Examples with answers:
O=[N+]([O-])c1ccc2c(c1)Nc1c3ccccc3nc3cccc-2c13    25.9 µM (inactive)
Nc1nc(N)c(C2=CCN(Cc3ccccc3)CC2)c(=O)[nH]1    > 100 µM (inactive)
C=C1CC(CN2CCC(=O)NC2=O)(c2ccccc2)OC1=O (centres undefined)    15.6 µM (inactive)
C=C1CC[C@H]2C(C)=CC[C@H]3C(=C)C(=O)O[C@@H]3[C@@H]12    > 100 µM (inactive)
Cc1cc2cc3ccccc3cc2c(=O)[nH]1    > 10 µM (inactive)
NC(CCSCCF)C(=O)O (centres undefined)    > 100 µM (inactive)

Input line: Name the reported GI50 value associated with the molecule O=[N+]([O-])C1C2C=CC(C2)[C@H]1c1ccco1 (some centres undefined)
Output line: > 100 µM (inactive)

Input line: Name the reported GI50 value associated with the molecule CC1OC(OC2C(OC(=O)[C@]34CCC(C)(C)C[C@H]3C3=CC[C@@H]5[C@@]6(C)CC[C@H](OC7OC(C(=O)O)C(O)C(O)C7O)C(C)(C)[C@@H]6CC[C@@]5(C)[C@]3(C)C[C@H]4O)OCC(O)C2O)C(O)C(OC2OCC(O)(CO)C2O)C1OC1OCC(O)C(O)C1O (some centres undefined)
Output line: 10.9 µM (inactive)

Input line: Name the reported GI50 value associated with the molecule Clc1ccc(-c2nnc(-c3nn(-c4ccccc4)c4nc5ccccc5nc34)o2)cc1
Output line: 76 µM (inactive)

Input line: Name the reported GI50 value associated with the molecule C=CC(C1=CC(=O)C(OC)=CC1=O)c1ccccc1 (centres undefined)
Output line: 17.1 µM (inactive)

---

GI50 values for the molecules below.
# Tested on: SK-MEL-5
# Measurement protocol: NCI tumour cell line growth inhibition, 48 h
Active and inactive are the calls of the source. No stated cut-off is given here; in the data, active = GI50 up to about 1.1 µM and inactive = higher.

Examples with answers:
NCCOc1cccc(C2(N3CCCCC3)CCCCC2)c1    16.5 µM (inactive)
CCN(CC)C(=O)N1CCN(C=S)CC1    > 100 µM (inactive)
O=C(OCc1ccccc1CN1CCOCC1)c1cccc(Br)c1    17.7 µM (inactive)

Input line: Name the reported GI50 value associated with the molecule C=C(C)[C@@H](C(=O)OC)N1C(=O)c2ccccc2C1=O
Output line: > 100 µM (inactive)

Input line: Name the reported GI50 value associated with the molecule O=C(Nc1nnc(-c2ccccc2)o1)C(SC(=S)N1CCCC1)c1ccccc1 (stereo unspecified)
Output line: 17.8 µM (inactive)

Input line: Name the reported GI50 value associated with the molecule Nc1nc(N)c2c(-c3ccccc3)ccnc2n1
Output line: > 100 µM (inactive)

---

# System: CAKI-1
# Measurement protocol: NCI tumour cell line growth inhibition, 48 h
Active and inactive are the calls of the source. No stated cut-off is given here; in the data, active = GI50 up to about 1.1 µM and inactive = higher.
GI50 values for the molecules below.

Examples with answers:
O=S1(=O)NC2CCC3NS(=O)(=O)NC4CCC(N1)N4S(=O)(=O)N23 (centres undefined)    > 100 µM (inactive)
Cc1cc(C)c2c(O)cc(-c3ccc4ccccc4c3)nc2n1    54.6 µM (inactive)
N#CC1=C(N)N(c2ccccc2)C(c2ccco2)C1(C#N)C#N (centres undefined)    30.6 µM (inactive)

Input line: Name the reported GI50 value associated with the molecule COC(=O)c1ccc(/C=C2\Oc3ccccc3C2=O)cc1
Output line: 41.2 µM (inactive)

Input line: Name the reported GI50 value associated with the molecule Cc1ccc(NC(=O)CC(=O)n2nc(-c3ccccc3)c(/N=N/c3ccc(Cl)cc3)c2-c2ccccc2)cc1
Output line: > 100 µM (inactive)

---

# Tested on: SW-620
# Measurement protocol: NCI tumour cell line growth inhibition, 48 h
Activity calls are given as the source filed them. Cut-off read from the data, not from the text of the source: active = GI50 up to about 1.1 µM and inactive = higher.
Would you mind answering with one of these outcomes? active, inactive

Input line: Per the records of this test, what outcome belongs to CC(=O)n1c(=O)c2cc3c(=O)n(-c4cccc(C#N)c4)c(=O)c3cc2c1=O ?
Output line: inactive

---

# GI50 per entry for HCT-15
Enter your answer as a number in µM; do not include the unit.

Examples with answers:
Cc1ccnc2nc(-c3cccc(Cl)c3)cc(O)c12    0.0407
Cc1ccc(NC(=O)CC(=O)n2nc(-c3ccccc3)c(/N=N/c3ccc(Cl)cc3)c2-c2ccccc2)cc1    88.7

Next, consider the following compound.
Input line: Please provide the recorded GI50 for CC1(C)C2CC(=O)C1(C)C(OCc1ccccc1)C2 (stereo unspecified) , tested on HCT-15.
Output line: 26.8

---

# Test system: HT-29
# Measurement protocol: NCI tumour cell line growth inhibition, 48 h
Activity calls are given as the source filed them. No stated cut-off is given here; in the data, active = GI50 up to about 1.1 µM and inactive = higher.
Value kind: GI50

Examples with answers:
O=C(CN1CCN(c2ccccc2)CC1)N1CCc2c([nH]c3ccccc23)C1c1cccnc1 (stereo not given)    > 53.5 µM (inactive)
CC(NCc1c(O)ccc2ccc(=O)oc12)C(=O)O (stereo not given)    > 100 µM (inactive)
c1ccc2c(c1)nc1n2C2CCC(C2)N1 (stereo not given)    > 10 µM (inactive)

Input line: Name the reported GI50 value associated with the compound CN(C)CCNC(=O)c1cccc2c1nc(-c1ccc(F)cc1)c1ccccc12
Output line: 3.85 µM (inactive)

Input line: Name the reported GI50 value associated with the compound Cc1c(C(=O)C/C(=N/NC(=O)C[n+]2ccccc2)C(=O)Nc2ccccc2)[n+]([O-])c2ccccc2[n+]1[O-]
Output line: > 100 µM (inactive)
